Target: FGFR3 (UniProt P22607)
Sequence (P22607 whole entry, looked up): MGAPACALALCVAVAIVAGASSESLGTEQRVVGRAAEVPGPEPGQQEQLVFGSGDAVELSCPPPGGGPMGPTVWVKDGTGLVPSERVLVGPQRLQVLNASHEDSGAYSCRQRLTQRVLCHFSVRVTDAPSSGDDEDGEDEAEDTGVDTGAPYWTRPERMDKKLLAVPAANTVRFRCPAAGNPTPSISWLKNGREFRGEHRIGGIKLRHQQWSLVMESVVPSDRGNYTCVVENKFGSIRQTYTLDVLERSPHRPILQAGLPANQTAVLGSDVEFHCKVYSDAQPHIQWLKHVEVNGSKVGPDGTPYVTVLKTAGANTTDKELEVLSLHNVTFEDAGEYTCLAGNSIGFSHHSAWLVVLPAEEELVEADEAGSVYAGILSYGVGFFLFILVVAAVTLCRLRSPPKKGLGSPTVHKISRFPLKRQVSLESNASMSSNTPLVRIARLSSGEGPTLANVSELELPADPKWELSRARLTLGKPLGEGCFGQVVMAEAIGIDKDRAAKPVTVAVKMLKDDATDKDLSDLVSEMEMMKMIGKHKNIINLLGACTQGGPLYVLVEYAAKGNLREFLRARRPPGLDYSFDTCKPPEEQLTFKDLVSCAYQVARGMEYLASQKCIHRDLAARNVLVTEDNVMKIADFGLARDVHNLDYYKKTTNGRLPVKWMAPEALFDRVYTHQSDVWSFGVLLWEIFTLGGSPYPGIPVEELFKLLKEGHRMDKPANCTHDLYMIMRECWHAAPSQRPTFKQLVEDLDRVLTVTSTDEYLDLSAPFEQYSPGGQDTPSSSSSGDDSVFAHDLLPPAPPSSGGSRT
Assay: phosphorylation enrichment, bacterial display (enrichment ratio); higher = better substrate or ligand; peptides without Tyr show the background;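 also: 11-residue human phosphosite peptides and single-mutation variants displayed on the E. coli surface, counted by deep sequencing, each peptide's frequency after selection divided by its frequency in the unselected input library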;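 also: frequency after pTyr selection over input frequency; kinase dosed for 20-30% of maximal phosphorylation in three min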
Criterion: phosphorylation enrichment meeting or surpassing 0.8. Met: Condition met. Not met: Condition not met.

Is reported phosphorylation enrichment greater than or equal to 0.8 here: NSIGNYFKPWF [DHCR24_Y299_YF]
Condition met

Is reported phosphorylation enrichment greater than or equal to 0.8 here: LGRTRYQHVTG [MIPEP_Y510]
Condition not met

Is reported phosphorylation enrichment greater than or equal to 0.8 here: LDPDSYNKFEN [FOXC1_Y159_M161K]
Condition met

Is reported phosphorylation enrichment greater than or equal to 0.8 here: ASRKYYAMKIL [AKT3_Y174_G171R]
Condition not met

Is reported phosphorylation enrichment greater than or equal to 0.8 here: IGSQRYQLGVR [RB1_Y446_K447Q]
Condition not met

Is reported phosphorylation enrichment greater than or equal to 0.8 here: TSNQEYLDVSM [FGFR1_Y766_L769V]
Condition met

Is reported phosphorylation enrichment greater than or equal to 0.8 here: GSSKIYFLHPD [TLR5_Y108]
Condition met

Is reported phosphorylation enrichment greater than or equal to 0.8 here: RFLERYIFNPE [HLA-DPB1_Y57_R61P_YF]
Condition not met

Is reported phosphorylation enrichment greater than or equal to 0.8 here: STSYDYCRVPM [BST2_Y8]
Condition met

Is reported phosphorylation enrichment greater than or equal to 0.8 here: ASSPVYVPTTR [GATA6_Y188]
Condition not met

Is reported phosphorylation enrichment greater than or equal to 0.8 here: KFGTNYRVGSS [CPO_Y278_YF]
Condition not met

Is reported phosphorylation enrichment greater than or equal to 0.8 here: IRGNMYFENSF [EGFR_Y112_YF]
Condition not met

Is reported phosphorylation enrichment greater than or equal to 0.8 here: FVSLIYTNFEA [GSTP1_Y109_I105V_YF]
Condition met

Is reported phosphorylation enrichment greater than or equal to 0.8 here: LRAGVYPEKDQ [DNM2_Y626]
Condition not met

Is reported phosphorylation enrichment greater than or equal to 0.8 here: RLLVVYPWNQR [HBB_Y36_T39N]
Condition not met

Is reported phosphorylation enrichment greater than or equal to 0.8 here: LENQTYFKSFE [AKAP9_Y2482]
Condition met

Is reported phosphorylation enrichment greater than or equal to 0.8 here: EQYELYCEMGS [CBL_Y371]
Condition met

Is reported phosphorylation enrichment greater than or equal to 0.8 here: FFHCTYKKRMI [CLEC12A_Y242_YF]
Condition not met

Is reported phosphorylation enrichment greater than or equal to 0.8 here: NTQRPYFKGGG [TYROBP_Y111_YF]
Condition not met

Is reported phosphorylation enrichment greater than or equal to 0.8 here: IDAICYFRMEN [NPHS2_Y194_YF]
Condition met

Is reported phosphorylation enrichment greater than or equal to 0.8 here: EWLRRHLENGK [HLA-A_Y195_Y195H]
Condition not met

Is reported phosphorylation enrichment greater than or equal to 0.8 here: CGTPEYRAPEI [PRKACA_Y205_L206R]
Condition met

Is reported phosphorylation enrichment greater than or equal to 0.8 here: VATRWYWSPEL [CDKL5_Y177_R178W]
Condition met

Is reported phosphorylation enrichment greater than or equal to 0.8 here: RVILRYVNPGN [LAMA3_Y791_T796N]
Condition met

Is reported phosphorylation enrichment greater than or equal to 0.8 here: AFEQQYSPIPR [NOX1_Y373]
Condition not met

Is reported phosphorylation enrichment greater than or equal to 0.8 here: YKWAVYCIIGR [NUP93_Y391_R388W]
Condition not met

Is reported phosphorylation enrichment greater than or equal to 0.8 here: PQDVTYARLHS [LILRB4_Y412_Q414R]
Condition not met

Is reported phosphorylation enrichment greater than or equal to 0.8 here: MCITQYKRESQ [PRNP_Y218_E219K]
Condition not met

Is reported phosphorylation enrichment greater than or equal to 0.8 here: RCYVYYYSYLL [PTEN_Y177_R173C]
Condition met

Is reported phosphorylation enrichment greater than or equal to 0.8 here: LYSINYLHFGE [KDM4C_Y201]
Condition met

Is reported phosphorylation enrichment greater than or equal to 0.8 here: LYSGDYYRIQG [DDR2_Y740]
Condition met

Is reported phosphorylation enrichment greater than or equal to 0.8 here: KLPDAYERLIL [G6PD_Y437]
Condition not met
